Recorded endpoint: melting point

Some molecules with recorded melting point:
Identify measured melting point corresponding to N#CNC(=Nc1ccncc1)NCC(O)COc1ccc(Cl)cc1 (centres undefined)
149 to 151 °C

Tell me measured melting point for O=C(O)c1c(F)cc(OCCNC(=O)C2Cc3ccccc3N2S(=O)(=O)c2ccc(-c3ccc(F)cc3Cl)cc2)cc1F (centres undefined) please.
75 to 80 °C

Please report the measured melting point for N#Cc1cccc(-c2nc(-c3ccc(C(N)=O)cc3)cc3cccnc23)c1
237 to 240 °C

# context switch: different molecule, same melting point
Quote melting point reported for CCC(CC)CNC(=O)c1cccc(CN2C(=O)C3(COc4cc5c(cc43)CCO5)c3ccccc32)c1 (centres undefined) please.
105 to 106 °C

----------
Recorded endpoint: melting point

Give the reported melting point for this compound. CC(C)(C)c1cc(C(=O)Nc2cccnc2NC(=O)NC23CC4CC(CC(C4)C2)C3)cc(C(C)(C)C)c1O
198 to 202 °C

Return value of melting point for input CC(C)n1c(C=O)c(-c2ccc(F)cc2)c2cccnc21 , no commentary.
95 to 101 °C

Answer with reported melting point of O=C1CSc2ccc(S(=O)(=O)Cl)cc2N1
165 to 167 °C

Answer with the recorded melting point of NCc1c(Nc2ccccc2)cccc1Oc1ccccc1 only.
113 to 116 °C

Give recorded melting point. COc1ccc(Oc2c(Cl)cc(-n3ncc(=O)[nH]c3=O)cc2Cl)cc1C=O
184 to 187 °C

----------
Reported melting point is given for each of the following compounds.

# return recorded melting point for entry O=C(Cl)c1cccc(N2CCOCC2)c1
219 to 220 °C

Further cases:
Please give the documented melting point of Cn1cncc1-c1cccc(Nc2nccc3ccccc23)c1
208 to 209 °C

Determine its reported melting point: O=C(CCc1cccc2[nH]ccc12)c1ccccc1OCC1CO1 (stereo unspecified)
72 °C

For the compound Cc1oc(-c2ccco2)nc1COc1cccc(CO)c1 , give its measured melting point value.
100 to 101 °C

Identify melting point associated with the compound O=CC(CC(=O)O)NC(=O)C1CCCN2C(=O)CCC(NC(=O)CCc3ccccc3)C(=O)N12 (stereo unspecified)
96 to 97 °C

Give reported melting point value for CCOC(=O)c1ccc(CSc2nnc(C)s2)cc1
55 to 58 °C

Give a short answer stating reported melting point for CCNC(=O)c1cnn(C)c1C(=O)Nc1ccn2nc(-c3ccccc3)nc2c1 .
253 to 255 °C

Supply measured melting point of CC(=O)NC1CCC(N2CCNC2=O)CC1 (stereo unspecified) in your reply.
211 to 230 °C

----------
Each entry below carries its reported melting point.

Complete the entry with melting point for O=[N+]([O-])c1ccc2c(c1)C(O)c1cccnc1CC2 (stereo not given)
222 to 223 °C

In one line, give reported melting point of the entry COc1ccc(-c2ccc(C=O)cc2)cc1OC1CCCC1 .
86.5 to 87.5 °C

Give recorded melting point. CC(C)(C)OC(=O)CN1CC(c2ccccc2)CCC(N=[N+]=[N-])C1=O (stereo not given)
119 to 121 °C

Write down melting point measured for item COc1ccc(CNC=C(C(C)=O)C(C)=O)cc1
91.2 to 92.2 °C

Now look at this one.
Please look at this compound and report its melting point: CCOC(=O)C1=C(C)NC(COCCn2ccnc2)=C(C(=O)OCC)C1c1ccccc1Cl (stereo not given)
163 to 165 °C
